We begin with a simple list: items and their reported Emax.
- Test system: GlunN1/GluN2A glutamate receptors (Homo sapiens (Human), UniProt Q05586+Q12879)
- Sequence (Q12879 23-1464, other chains not shown): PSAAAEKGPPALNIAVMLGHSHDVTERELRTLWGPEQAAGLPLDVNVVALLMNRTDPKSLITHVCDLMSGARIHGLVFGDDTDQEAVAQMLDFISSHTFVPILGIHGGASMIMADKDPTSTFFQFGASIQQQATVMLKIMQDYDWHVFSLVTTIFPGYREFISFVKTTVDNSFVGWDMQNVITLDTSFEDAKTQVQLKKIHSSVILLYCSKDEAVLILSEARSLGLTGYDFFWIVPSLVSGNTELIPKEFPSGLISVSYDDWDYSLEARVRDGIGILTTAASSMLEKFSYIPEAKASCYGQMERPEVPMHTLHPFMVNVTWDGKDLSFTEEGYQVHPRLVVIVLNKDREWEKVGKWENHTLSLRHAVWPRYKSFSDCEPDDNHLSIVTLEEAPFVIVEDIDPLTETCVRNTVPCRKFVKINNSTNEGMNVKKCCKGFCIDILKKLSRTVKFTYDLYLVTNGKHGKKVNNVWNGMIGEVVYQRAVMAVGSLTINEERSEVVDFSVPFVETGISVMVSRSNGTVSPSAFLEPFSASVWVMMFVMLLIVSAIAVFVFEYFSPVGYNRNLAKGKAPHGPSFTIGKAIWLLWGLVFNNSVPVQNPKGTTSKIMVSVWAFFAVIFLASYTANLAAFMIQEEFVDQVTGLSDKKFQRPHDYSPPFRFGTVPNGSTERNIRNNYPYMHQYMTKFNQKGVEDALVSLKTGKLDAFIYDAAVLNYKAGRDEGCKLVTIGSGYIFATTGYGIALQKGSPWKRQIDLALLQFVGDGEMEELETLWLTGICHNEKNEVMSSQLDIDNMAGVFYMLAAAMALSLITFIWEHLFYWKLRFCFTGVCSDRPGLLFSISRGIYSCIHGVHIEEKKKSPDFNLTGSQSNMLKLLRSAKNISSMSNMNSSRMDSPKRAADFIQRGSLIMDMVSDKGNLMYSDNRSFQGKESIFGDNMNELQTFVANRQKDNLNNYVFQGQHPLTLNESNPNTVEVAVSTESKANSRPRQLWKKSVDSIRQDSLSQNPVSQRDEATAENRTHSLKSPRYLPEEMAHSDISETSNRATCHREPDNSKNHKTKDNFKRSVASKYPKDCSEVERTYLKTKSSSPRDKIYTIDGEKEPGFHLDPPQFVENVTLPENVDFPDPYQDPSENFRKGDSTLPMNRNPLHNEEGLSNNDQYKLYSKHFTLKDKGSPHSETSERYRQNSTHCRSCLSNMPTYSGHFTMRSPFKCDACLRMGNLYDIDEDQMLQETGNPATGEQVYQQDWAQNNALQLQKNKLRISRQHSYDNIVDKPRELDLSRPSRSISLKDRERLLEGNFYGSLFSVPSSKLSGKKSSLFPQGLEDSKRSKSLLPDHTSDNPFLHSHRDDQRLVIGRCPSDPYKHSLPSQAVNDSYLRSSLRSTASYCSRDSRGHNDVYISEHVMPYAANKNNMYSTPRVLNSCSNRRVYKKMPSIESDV
- Test method notes: Whole-cell patch clamp of mammalian cells (Ionworks Barracuda), positive allosteric modulation, GluN1/GluN2A
- Type: cell-based
- Experimental setup: HEK293 cells; % potentiation of current elicited with EC20 L-glutamate and 30 μM glycine; read-out: Avg Emax 2A (%)
Give just the numeric value; % need not be written.

These solved cases illustrate the format of a correct answer.
Molecule: CC[C@]1(O)CC[C@@]2(C)C(=CC[C@H]3[C@@H]4CC[C@H]([C@H](C)CCC(O)Cc5ccccc5)[C@@]4(C)CC[C@@H]32)C1 (some centres unmarked)
Emax (%): 239
//
Molecule: CC[C@]1(O)CC[C@@]2(C)[C@@H](CC[C@@H]3[C@@H]2CC[C@]2(C)[C@@H]([C@H](C)CC[C@@H](O)c4ccccn4)CC[C@@H]32)C1
Emax (%): 28.3

Enquiry: Which Emax is listed for CC[C@]1(O)CC[C@H]2C(=CC[C@@H]3[C@@H]2CC[C@]2(C)[C@@H]([C@H](C)CCC[C@H](O)C(F)(F)F)CC[C@@H]32)C1 ?
Return: 104

Enquiry: Follow-up item: CC[C@]1(O)CC[C@@]2(C)C(=CC[C@H]3[C@@H]4CC[C@H]([C@H](C)CC[C@@H](O)c5ccccc5)[C@@]4(C)CC[C@@H]32)C1
Return: 183

Enquiry: Now the molecule C[C@H](CC[C@@H](C)O)[C@H]1CC[C@H]2[C@@H]3CC=C4C[C@](O)(C(F)(F)F)CC[C@]4(C)[C@H]3CC[C@]12C
Return: 82.6

----------
- Test system: GluN2B glutamate receptors (Homo sapiens (Human), UniProt Q05586+Q13224)
- Sequence (Q13224 27-1484, other chains not shown): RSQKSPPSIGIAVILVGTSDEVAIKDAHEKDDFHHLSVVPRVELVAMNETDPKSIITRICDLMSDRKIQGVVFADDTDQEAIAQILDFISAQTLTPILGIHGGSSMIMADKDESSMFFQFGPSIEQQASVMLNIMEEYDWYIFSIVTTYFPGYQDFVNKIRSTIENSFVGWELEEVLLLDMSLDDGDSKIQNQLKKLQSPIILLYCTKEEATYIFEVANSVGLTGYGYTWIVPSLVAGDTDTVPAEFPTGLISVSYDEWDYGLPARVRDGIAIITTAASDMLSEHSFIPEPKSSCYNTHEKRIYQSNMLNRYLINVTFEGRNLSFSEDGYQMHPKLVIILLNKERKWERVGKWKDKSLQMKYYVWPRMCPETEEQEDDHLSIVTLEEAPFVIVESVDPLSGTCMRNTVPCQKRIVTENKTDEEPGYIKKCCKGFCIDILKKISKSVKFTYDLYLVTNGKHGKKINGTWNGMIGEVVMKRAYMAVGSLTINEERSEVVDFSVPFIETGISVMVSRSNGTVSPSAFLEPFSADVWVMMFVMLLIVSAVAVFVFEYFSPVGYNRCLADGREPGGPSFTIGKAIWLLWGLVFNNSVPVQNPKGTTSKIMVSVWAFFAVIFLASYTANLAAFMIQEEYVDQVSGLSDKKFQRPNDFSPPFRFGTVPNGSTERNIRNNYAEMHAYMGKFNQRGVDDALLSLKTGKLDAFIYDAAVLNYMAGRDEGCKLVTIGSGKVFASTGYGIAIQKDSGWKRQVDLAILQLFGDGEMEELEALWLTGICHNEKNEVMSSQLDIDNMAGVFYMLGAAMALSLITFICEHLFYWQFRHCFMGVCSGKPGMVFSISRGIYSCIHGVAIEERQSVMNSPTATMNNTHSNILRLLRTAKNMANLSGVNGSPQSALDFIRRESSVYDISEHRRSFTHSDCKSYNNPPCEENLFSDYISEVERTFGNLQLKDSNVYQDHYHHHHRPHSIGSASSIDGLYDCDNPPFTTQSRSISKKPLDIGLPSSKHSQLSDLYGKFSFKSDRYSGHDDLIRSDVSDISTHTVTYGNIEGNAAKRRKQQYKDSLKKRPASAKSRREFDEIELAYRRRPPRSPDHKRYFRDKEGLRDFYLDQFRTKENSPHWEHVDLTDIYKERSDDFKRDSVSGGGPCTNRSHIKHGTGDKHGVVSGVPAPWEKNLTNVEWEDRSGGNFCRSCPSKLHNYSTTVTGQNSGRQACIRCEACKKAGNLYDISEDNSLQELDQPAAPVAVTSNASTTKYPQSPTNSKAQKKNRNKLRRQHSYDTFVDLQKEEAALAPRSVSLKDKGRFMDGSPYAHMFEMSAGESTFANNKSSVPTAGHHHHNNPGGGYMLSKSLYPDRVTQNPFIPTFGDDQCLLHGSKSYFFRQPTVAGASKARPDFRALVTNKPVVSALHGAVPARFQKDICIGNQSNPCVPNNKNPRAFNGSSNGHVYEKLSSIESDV
- Test method notes: Whole-cell patch clamp of mammalian cells (Ionworks Barracuda), positive allosteric modulation, GluN2B
- Type: cell-based
Readout type: EC50

Before answering, review these 4 worked examples.
Molecule: CC[C@]1(O)CC[C@@]2(C)C(=CC[C@H]3[C@@H]4CC[C@H]([C@H](C)CC[C@H](O)c5ccccn5)[C@@]4(C)CC[C@@H]32)C1
EC50: 311 nM
//
Molecule: CC[C@]1(O)CC[C@@]2(C)[C@@H](CC[C@@H]3[C@@H]2CC[C@]2(C)[C@@H]([C@H](C)CC[C@@H](O)c4cccnc4)CC[C@@H]32)C1
EC50: > 10000 nM
//
Molecule: C[C@H](CC[C@](C)(O)C(F)(F)F)[C@H]1CC[C@H]2[C@@H]3CC=C4C[C@](O)(C(F)(F)F)CC[C@]4(C)[C@H]3CC[C@]12C
EC50: 75.7 nM
//
Molecule: C[C@H](CCC(O)C(C)(C)C)[C@H]1CC[C@H]2[C@@H]3CC=C4C[C@](O)(C(F)(F)F)CC[C@]4(C)[C@H]3CC[C@]12C (some centres unmarked)
EC50: 91.1 nM

Enquiry: # get_value(readout='EC50', item= CC[C@H](O)CC[C@@H](C)[C@H]1CC[C@H]2[C@@H]3CC=C4C[C@](O)(CC)CC[C@@H]4[C@H]3CC[C@]12C )
Return: 237 nM

----------
- Test system: GlunN1/GluN2A glutamate receptors (Homo sapiens (Human), UniProt Q05586+Q12879)
- Test method notes: Whole-cell patch clamp of mammalian cells (Ionworks Barracuda), positive allosteric modulation, GluN1/GluN2A
- Assay type: cell-based
- Procedure: The measurements were performed using Ion Works Barracuda platform following this procedure: Electrophysiological Procedures: • a) Intracellular solution (mM): 50 mM CsCl, 90 mM CsF, 2 mM MgCl2, 5 mM EGTA, 10 mM HEPES. Adjust to pH 7.2 with CsOH. • b) Extracellular solution, HB-PS (composition in mM): NaCl, 137; KCl, 1.0; CaCl2), 5; HEPES, 10; Glucose, 10; pH adjusted to 7.4 with NaOH (refrigerated until use). • c) Holding potential: −70 mV, potential during agonist/PAM application: −40 mV. […]
pEC50 by entry:
# reply with the number alone; pEC50 is -log10 of concentration in mol/L

Solved entries (count: 5):
Compound: C[C@H](CC[C@H](O)C1CCOCC1)[C@H]1CC[C@H]2[C@@H]3CC[C@H]4C[C@](O)(C(F)(F)F)CC[C@]4(C)[C@H]3CC[C@]12C [Compound 2080]
Quantitative result: 6.78
--
Compound: CC[C@]1(O)CC[C@@]2(C)C(=CC[C@H]3[C@@H]4CC[C@H]([C@H](C)CC[C@@H](O)c5ccccc5C#N)[C@@]4(C)CC[C@@H]32)C1 [Compound 7399]
Quantitative result: 6.16
--
Compound: C[C@H](CC[C@H](O)C1CCC1)[C@H]1CC[C@H]2[C@@H]3CC[C@H]4C[C@](O)(C(F)(F)F)CC[C@]4(C)[C@H]3CC[C@]12C [7−A]
Quantitative result: 6.61
--
Compound: C[C@H](CC[C@]1(O)CCOC1)[C@H]1CC[C@H]2[C@@H]3CC=C4C[C@](O)(C(F)(F)F)CC[C@]4(C)[C@H]3CC[C@]12C [Compound 3496]
Quantitative result: 7.45
--
Compound: CC[C@]1(O)CC[C@@]2(C)C(=CC[C@H]3[C@@H]4CC[C@H]([C@H](C)CC[C@@H](O)c5ccc(C#N)cc5)[C@@]4(C)CC[C@@H]32)C1 (single isomer, unassigned) [Compound 6680]
Quantitative result: 5.86

Enquiry: Form entry - test system: GlunN1/GluN2A glutamate receptors (Homo sapiens (Human), UniProt Q05586+Q12879); read-out: pEC50; compound: CC[C@]1(O)CC[C@H]2C(=CC[C@@H]3[C@@H]2CC[C@]2(C)[C@@H]([C@H](C)CCC4(O)CCC(F)(F)CC4)CC[C@@H]32)C1 [Compound 8708]
Return: 6.16

Enquiry: Same question, CC[C@H]1CC[C@@](O)(CC[C@@H](C)[C@H]2CC[C@H]3[C@@H]4CC[C@H]5C[C@](O)(C(F)(F)F)CC[C@]5(C)[C@H]4CC[C@]23C)CC1 [Compound 4475] this time
Return: 6.34

Enquiry: Query CC[C@]1(O)CC[C@H]2C(=CC[C@@H]3[C@@H]2CC[C@]2(C)[C@@H]([C@H](C)CCC4(O)CCOC4)CC[C@@H]32)C1 (some centres unmarked) [Compound 8689] next
Return: 6.77

Enquiry: What do you get for CC[C@]1(O)CC[C@@]2(C)C(=CC[C@H]3[C@@H]4CC[C@H]([C@H](C)CC[C@@H](O)c5cccc(F)c5)[C@@]4(C)CC[C@@H]32)C1 (single isomer, unassigned) [Compound 6895] ?
Return: 6.76

Enquiry: Can you check CC[C@]1(O)CC[C@@]2(C)C(=CC[C@H]3[C@@H]4CC[C@H]([C@H](C)CC[C@@H](O)Cc5ccccc5)[C@@]4(C)CC[C@@H]32)C1 [Compound 6052] next?
Return: 6.37

Enquiry: Proceed to C[C@H](CC[C@@H](O)C(C)(C)C)[C@H]1CC[C@H]2[C@@H]3CC[C@@H]4C[C@](O)(C(F)(F)F)CC[C@]4(C)[C@H]3CC[C@]12C [Compound 3788]
Return: 5.88

Enquiry: Also, CC[C@]1(O)CC[C@@]2(C)C(=CC[C@H]3[C@@H]4CC[C@H]([C@H](C)CC[C@@H](O)c5ccccc5)[C@@]4(C)CC[C@@H]32)C1 [Compound 861] please.
Return: 6.70

Enquiry: Next entry: CC(C)C(O)CC[C@@H](C)[C@H]1CC[C@H]2[C@@H]3CC[C@H]4C[C@@](C)(O)CC[C@@H]4[C@H]3CC[C@]12C (some centres unmarked) [Compound 175]
Return: 6.24

Enquiry: Follow-up entry: C[C@H](CC[C@@H](O)C(C)(C)C)[C@H]1CC[C@H]2[C@@H]3CC=C4C[C@](O)(C(F)(F)F)CC[C@]4(C)[C@H]3CC[C@]12C [Compound 3382]
Return: 7.17

Enquiry: Now consider CC[C@]1(O)CC[C@H]2C(=CC[C@@H]3[C@@H]2CC[C@]2(C)[C@@H]([C@H](C)CC[C@H](O)C(C)C)CC[C@@H]32)C1 [Compound 8462] .
Return: 6.77

Enquiry: Next compound: C[C@H](CC[C@@H](C)O)[C@H]1CC[C@H]2[C@@H]3CC[C@H]4C[C@](O)(C(F)(F)F)CC[C@]4(C)[C@H]3CC[C@]12C [Compound 2285]
Return: 6.12

Enquiry: Please answer likewise for CC[C@]1(O)CC[C@@]2(C)C(=CC[C@H]3[C@@H]4CC[C@H]([C@H](C)CC[C@H](O)c5ccccn5)[C@@]4(C)CC[C@@H]32)C1 [Compound 6347]
Return: 6.57

----------
- Test system: GluN2B glutamate receptors (Homo sapiens (Human), UniProt Q05586+Q13224)
- Test method notes: Whole-cell patch clamp of mammalian cells (Ionworks Barracuda), positive allosteric modulation, GluN2B
- Type: cell-based
Rule for this label: condition met means EC50 is less than 200 nM; condition not met means EC50 is at least 200 nM.

Example results:
Molecule: CC[C@]1(O)CC[C@@]2(C)C(=CC[C@H]3[C@@H]4CC[C@H]([C@H](C)CC[C@@H](O)c5cccc(F)c5)[C@@]4(C)CC[C@@H]32)C1 (single isomer, unassigned)
Label: condition not met

Molecule: C[C@H](CC[C@@H](O)C(C)(C)C)[C@H]1CC[C@H]2[C@@H]3CC=C4C[C@](O)(C(F)(F)F)CC[C@]4(C)[C@H]3CC[C@]12C
Label: condition met

Molecule: CC[C@]1(O)CC[C@@]2(C)C(=CC[C@H]3[C@@H]4CC[C@H]([C@H](C)CCC(O)c5ccccc5)[C@@]4(C)CC[C@@H]32)C1 (stereo partly shown)
Label: condition not met

Molecule: CC[C@]1(O)CC[C@H]2C(=CC[C@@H]3[C@@H]2CC[C@]2(C)[C@@H]([C@H](C)CC[C@H](O)C(C)(C)C)CC[C@@H]32)C1
Label: condition not met

Molecule: CC[C@]1(O)CC[C@@]2(C)[C@@H](CC[C@@H]3[C@@H]2CC[C@]2(C)[C@@H]([C@H](C)CCC(O)c4ccccc4)CC[C@@H]32)C1 (stereo partly shown)
Label: condition not met

Enquiry: # TODO verify EC50 < 200 nM strictly for this molecule: CO[C@H]1CC[C@](O)(CC[C@@H](C)[C@H]2CC[C@H]3[C@@H]4CC[C@H]5C[C@](O)(C(F)(F)F)CC[C@]5(C)[C@H]4CC[C@]23C)CC1
Return: condition met

Enquiry: Now the same for CCC(O)CC[C@@H](C)[C@H]1CC[C@H]2[C@@H]3CC=C4C[C@](O)(CC)CC[C@@H]4[C@H]3CC[C@]12C (stereo partly shown)
Return: condition not met

Enquiry: Also CC[C@]1(O)CC[C@@]2(C)[C@@H](CC[C@@H]3[C@@H]2CC[C@]2(C)[C@@H]([C@H](C)CC[C@H](O)c4ccccc4)CC[C@@H]32)C1 ?
Return: condition not met

Enquiry: Thanks! And C[C@H](CC[C@@H](C)O)[C@H]1CC[C@H]2[C@@H]3CC[C@H]4C[C@](O)(C(F)(F)F)CC[C@]4(C)[C@H]3CC[C@]12C ?
Return: condition not met

Enquiry: Request: CC[C@]1(O)CC[C@H]2C(=CC[C@@H]3[C@@H]2CC[C@]2(C)[C@@H]([C@H](C)CC[C@@]4(O)CCOC4)CC[C@@H]32)C1 (single isomer, unassigned)
Return: condition not met
